Quick record: Ki, 5-hydroxytryptamine receptor 2B (Rattus norvegicus).
measurement-type: Ki (nM)

1) O=C(c1ccc(F)cc1)C1CCN(CCn2c(=O)[nH]c3ccccc3c2=O)CC1 = 3160
2) CC(O)C(C)OC(=O)C1CC2c3cccc4c3c(cn4C(C)C)CC2N(C)C1 (configuration not stated) = 6.31

Cited source for all entries: BindingDB's records for doi:10.1038/sj.bjp.0703341
